- Measurement protocol: Pharmacokinetics of RAD001 in the blood of NSG mice with NALM6 tumors
- Format: in vivo
- Stated conditions: NSG, mouse, whole blood; day 0; 24 hours after dosing; lowest dose tested (0.3 mg/kg), oral
Measure: concentration at 24 h

Give the measured concentration at 24 h for CO[C@H]1C[C@@H]2CC[C@@H](C)[C@@](O)(O2)C(=O)C(=O)N2CCCC[C@H]2C(=O)O[C@H]([C@H](C)C[C@@H]2CC[C@@H](OCCO)[C@H](OC)C2)CC(=O)[C@H](C)/C=C(\C)[C@@H](O)[C@@H](OC)C(=O)[C@H](C)C[C@H](C)/C=C/C=C/C=C/1C
> 10 nM
